Assay: Compound was evaluated for AUC after treatment with iv dose of 1 mgkg to female cynomolgus monkey
Assay type: ADME, organism-based
Parameters: dose 1 mgkg, route intravenous
Settings: cercopithecidae, in vivo, 1 mg/kg
readout_kind: AUC (ng·h/mL)
Give the value in ng·h/mL but do not write ng·h/mL after it.

What does the data say about its AUC? Entry: COc1ccc(C(=O)/C(Cc2cc(OC)c(OC)c(OC)c2)=C(\C(=O)[O-])c2ccc3nsnc3c2)cc1F.[Na+]
3300

* * *

Molecular target: UniProtKB P35463
Sequence (P35463 whole entry): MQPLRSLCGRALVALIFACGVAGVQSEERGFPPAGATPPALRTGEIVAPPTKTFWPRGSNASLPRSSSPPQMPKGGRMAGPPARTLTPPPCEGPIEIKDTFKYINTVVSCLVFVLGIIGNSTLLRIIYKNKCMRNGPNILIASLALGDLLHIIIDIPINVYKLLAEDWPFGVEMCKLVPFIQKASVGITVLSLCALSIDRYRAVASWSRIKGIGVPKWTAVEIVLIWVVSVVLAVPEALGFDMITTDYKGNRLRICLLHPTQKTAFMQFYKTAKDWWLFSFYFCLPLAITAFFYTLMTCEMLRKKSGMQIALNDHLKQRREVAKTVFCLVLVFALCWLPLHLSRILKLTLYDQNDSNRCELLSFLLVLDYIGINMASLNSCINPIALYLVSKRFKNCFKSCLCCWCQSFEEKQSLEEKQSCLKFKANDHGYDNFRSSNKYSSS
readout_kind: pIC50
As a rule, pIC50 stands for the negative log10 of the concentration, concentration in M.

Examples with answers:
What does the data say about its pIC50? Entry: COc1ccc(C/C(C(=O)c2ccc(OC)cc2)=C(/C(=O)O)c2ccc3nsnc3c2)cc1
5.74

What does the data say about its pIC50? Entry: COc1ccc(C(=O)/C(Cc2cc(OC(C)C)c(OC(C)C)c(OC(C)C)c2)=C(\C(=O)O)c2ccc3nsnc3c2)cc1
6.66

What does the data say about its pIC50? Entry: COc1ccc(C(=O)/C(Cc2ccc3c(c2)OCO3)=C(\C(=O)O)c2ccc3nsnc3c2)cc1
5.82

What does the data say about its pIC50? Entry: COc1ccc(C(=O)/C(Cc2ccccc2)=C(\C(=O)O)c2ccc3c(c2)OCO3)cc1
5.34

Continuing:
What does the data say about its pIC50? Entry: COc1cc(C/C(C(=O)c2ccc3c(c2)OCO3)=C(/C(=O)O)c2ccc3nsnc3c2)cc(OC)c1OC
6.40

What does the data say about its pIC50? Entry: COc1ccc(C(=O)/C(Cc2cc(OC)c(OC)c(OC)c2)=C(\C(=O)O)c2ccc3nsnc3c2)cc1Cl
6.74

What does the data say about its pIC50? Entry: COc1ccc(C(=O)/C(Cc2cc(OC)c(OC)c(OC)c2)=C(\C(=O)O)c2ccc3c(c2)OCO3)cc1 [PD-156707 SODIUM]
6.47

What does the data say about its pIC50? Entry: COc1ccc(C(=O)/C(Cc2cc(OC)c(OC)c(OC)c2)=C(\C(=O)O)c2ccc3nsnc3c2)cc1C
6.59

What does the data say about its pIC50? Entry: COc1cc(C/C(C(=O)c2cc(OC)c(OC)c(OC)c2)=C(/C(=O)O)c2ccc3nsnc3c2)cc(OC)c1OC
6.47

These entries and their values trace back to ChEMBL document CHEMBL1130878.
